Values were extracted from ChEMBL document CHEMBL3813616.

target: Serine/threonine-protein kinase PAK 6 (Homo sapiens); assay: Inhibition of human PAK6 (2 to 681 residues) assessed as enzyme activity at 1 uM using 33P ATP by radioactive filter binding assay; design: scale not given: the % may be the effect or the level left
observable: Activity (%)

a: Nc1nccc(-c2c[nH]c3ncccc23)n1 [MERIOLIN 1]
b: CCCCc1cc(-c2c[nH]c3ncccc23)nc(N)n1
c: CCCCc1cc(-c2c[nH]c3ncc(-c4cnn(C5CCNCC5)c4)cc23)nc(N)n1
d: CCc1cc(-c2c[nH]c3ncc(-c4cnn(C5CCNCC5)c4)cc23)nc(N)n1
Query: Re-order the entries listed above so their Activity values fall from first to last. Give the order by naming the labels one after another as requested.
Reply: b, d, a, c
